Tested on: HTT mRNA canonical junction (CJ)
experiment_notes: Splicing RT-qPCR assay, decrease of HTT canonical junction (CJ) mRNA
Type: cell-based
experimental_setup: A673 or K562 cells, 24 hours compound treatment, concentration having 50% response in CJ decrease
This section presents compounds with their documented AC50 values.

{"columns": ["compound", "system_name", "AC50"],
 "data": [
  ["Cc1cn2nc(NC(=O)c3ccc(N4CCNCC4)c4nn(C)cc34)nc2c(C)n1 [Compound 253]", "HTT mRNA canonical junction (CJ)", "> 10 µM"],
  ["Cc1cn2cc(NC(=O)c3ccc(C4CCN(C)CC4)c4cc(C)oc34)cc(F)c2n1 [Compound 256]", "HTT mRNA canonical junction (CJ)", "1 to 10 µM"],
  ["Cc1cc2c(N3CCNCC3)ccc(C(=O)Nc3ccc4cn(C)nc4c3)c2o1 [Compound 261]", "HTT mRNA canonical junction (CJ)", "1 to 10 µM"]
]}

----------
Tested on: HTT mRNA canonical junction (CJ)
experiment_notes: Splicing RT-qPCR assay, decrease of HTT canonical junction (CJ) mRNA
Type: cell-based
experimental_setup: A673 or K562 cells, 24 hours compound treatment, concentration having 50% response in CJ decrease
Description: Compounds described herein were used to modulate RNA transcript abundance in cells. The expression of a target mRNA was measured by detecting the formation of an exon-exon junction in the canonical transcript (CJ). A compound mediated exon-inclusion event was detected by observing an increase in formation of a new junction with an alternative exon (AJ). […] After treatment, the levels of the HTT mRNA targets were determined from each sample of cell lysate by cDNA synthesis followed by qPCR. […]
# AC50 values compiled below
property_label: AC50

{"columns": ["molecule", "property_label", "result"],
 "data": [
  ["Cc1cn2cc(NC(=O)c3ccc(N4CCN(C)CC4)c4cn(C)nc34)cc(F)c2n1", "AC50", "100 to 1000 nM"],
  ["Cn1cc2ccc(NC(=O)c3ccc(N4CCNCC4)c4cn(C)nc34)cc2n1", "AC50", "> 10000 nM"],
  ["CCNC1CCN(c2ccc(C(=O)Nc3cc(F)c4nc(C)cn4c3)c3nn(C)cc23)CC1", "AC50", "100 to 1000 nM"],
  ["Cc1cn2cc(NC(=O)c3ccc(C4CCNCC4)c4c3OCC4)cc(F)c2n1", "AC50", "> 10000 nM"],
  ["Cc1cn2cc(NC(=O)c3ccc(N4CCN(C)C(C)C4)c4cc(C)oc34)cc(F)c2n1 (stereo not drawn)", "AC50", "100 to 1000 nM"],
  ["Cc1nc2c(F)cc(NC(=O)c3ccc(N4CCNCC4)c4cn(C)nc34)cc2s1", "AC50", "1000 to 10000 nM"],
  ["Cc1cn2nc(NC(=O)c3ccc(N4CCNCC4)c4cc(C)oc34)cc2c(C)n1", "AC50", "> 10000 nM"],
  ["Cc1cn2cc(NC(=O)c3ccc(N4CC5(CN(C)C5)C4)c4cn(C)nc34)cc(F)c2n1", "AC50", "100 to 1000 nM"],
  ["Cc1cn2cc(NC(=O)c3ccc(N4CCC(NC(C)(C)C)CC4)c4cc(C)oc34)cc(F)c2n1", "AC50", "> 10000 nM"],
  ["Cc1cn2cc(NC(=O)c3ccc(N4CCNCC4)c4cn(C)nc34)nc2c(C)n1", "AC50", "> 10000 nM"],
  ["Cc1cn2cc(NC(=O)c3ccc(N4C[C@H]5CC[C@@H](C4)N5)c4cc(C)oc34)cc(F)c2n1", "AC50", "1000 to 10000 nM"],
  ["Cc1cn2cc(NC(=O)c3ccc(N4C[C@H]5CC[C@@H](C4)N5)c4cn(C)nc34)cc(Cl)c2n1", "AC50", "1000 to 10000 nM"],
  ["Cc1cn2cc(NC(=O)c3ccc(C4C[C@@H](C)N[C@@H](C)C4)c4cn(C)nc34)cc(F)c2n1 (stereo partly drawn)", "AC50", "1000 to 10000 nM"],
  ["Cc1cn2cc(NC(=O)c3ccc(N4CCC(N(C)C)CC4)c4cc(C)oc34)cc(F)c2n1", "AC50", "100 to 1000 nM"],
  ["Cc1cn2cc(NC(=O)c3ccc(C4CCN(C)CC4)c4cn(C)nc34)cc(F)c2n1", "AC50", "100 to 1000 nM"],
  ["Cc1cn2nc(-c3ccc(C(=O)NC4CCNCC4)c4nn(C)cc34)cc(C)c2n1", "AC50", "1000 to 10000 nM"],
  ["Cc1cn2cc(NC(=O)c3ccc(N4CCN(C)CC4)c4cc(C)oc34)cc(F)c2n1", "AC50", "1000 to 10000 nM"],
  ["Cc1cn2cc(NC(=O)c3ccc(N4CCNCC4)c4c[nH]nc34)cc(Cl)c2n1", "AC50", "> 10000 nM"],
  ["Cc1cn2nc(NC(=O)c3ccc(N4CCNCC4)c4cc(C)oc34)cc(C)c2n1", "AC50", "1000 to 10000 nM"],
  ["Cc1cn2cc(NC(=O)c3ccc(N4CCNCC4)c4cn(C)nc34)cc(C(F)(F)F)c2n1", "AC50", "1000 to 10000 nM"],
  ["Cc1cn2cc(NC(=O)c3ccc(N4CCNCC4)c4cn(C)nc34)ncc2n1", "AC50", "1000 to 10000 nM"],
  ["Cc1cn2nc(NC(=O)c3ccc(C4CCNCC4)c4ccoc34)cc(C)c2n1", "AC50", "1000 to 10000 nM"],
  ["Cc1cc2c(N3CCNCC3)ccc(C(=O)Nc3cc(F)c4cn(C)nc4c3)c2o1", "AC50", "1000 to 10000 nM"],
  ["Cc1cn2cc(NC(=O)c3ccc(N4CCC(N(C)C)C4)c4cn(C)nc34)cc(Cl)c2n1 (stereo not drawn)", "AC50", "1000 to 10000 nM"],
  ["Cc1cn2nc(NC(=O)c3ccc(C4CCNCC4)c4cc(C)oc34)cc(C)c2n1", "AC50", "1000 to 10000 nM"],
  ["Cc1cn2nc(NC(=O)c3ccc(N4CCNCC4)c4cc(C)oc34)nc2c(C)n1", "AC50", "> 10000 nM"],
  ["Cc1cn2cc(NC(=O)c3ccc(N(C)C4CC(C)(C)NC(C)(C)C4)c4cc(C)oc34)cc(F)c2n1", "AC50", "> 10000 nM"]
]}
